Biological target: Luciferin 4-monooxygenase (Photinus pyralis)
Experiment: firefly luciferase enzyme inhibitors, primary screen, biochemical, luminescence, purified enzyme, 2006 set (AID 1141);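 further: cell-free assay with purified firefly luciferase at 100 ng per well in PBS; test concentration not given here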
Settings: SteadyGlo luminescence, 30 min, higher = more signal, called active from +8 up or from −8 down
Endpoint name: z-score
Lab note: record the figure alone, no unit after it.

C=C(C(=O)CC[C@H](OC(=O)c1ccccc1-c1ccccc1C(=O)O)c1ccccc1OCCO)C(C)C	-1.29
CCOC(=O)C1=CCC(c2ccccc2)N(S(=O)(=O)c2ccc([N+](=O)[O-])cc2)C1 (stereo not drawn)	0.864
COCCCNC(=O)[C@@]1(Sc2ccc(C)cc2)CC(=O)N(C(C)C)[C@@H]1c1ccc(CO)cc1I	0.805
COCCOC(=O)N1C(=O)[C@@]2(c3ccccc31)[C@H](c1ccccc1OCCO)N1[C@H](c3ccccc3)[C@H](c3ccccc3)OC(=O)[C@H]1[C@@H]2C(N)=O	0.0559

Input line: // query z-score value for entry [N-]=[N+]=NCc1ccccc1C[C@]1(C(=O)N2CCOCC2)COC(c2ccc(OCCCO)cc2)=N1
Output line: -1.21

Input line: Value lookup for z-score; key = Cc1ccccc1C(O)C1C=CC2C(=O)NC(=O)C2N1Nc1ccc(Cl)cc1Cl (stereo not drawn)
Output line: -1.08

Input line: Please give the measured z-score for this molecule: [N-]=[N+]=Nc1ccccc1C[C@]1(C(=O)O)N=C(c2ccc(OCCCO)cc2)O[C@H]1c1ccccc1N=[N+]=[N-]
Output line: -5.36

Input line: // lookup z-score for CC(C)OC(=O)CC(=O)CC(O)c1ccc([N+](=O)[O-])cc1 (stereo not drawn)
Output line: 0.419

* * *

Experiment: small-molecule binders of probe aLefty1, primary screen, biochemical, small-molecule microarray, 635/667 nm fluorescence (AID 1153);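 further: score merges spot fluorescence with signal-to-noise ratio from the scanned slide images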
Settings: higher = more signal
The threshold is inclusive: composite z-score of exactly 0.09 counts as condition met; values below receive condition not met.

CC(C)C(=C=CC[C@H](O)c1cccc(OCCO)c1)CCO	condition not met

Input line: Is it the case that [N-]=[N+]=Nc1ccccc1C[C@@]1(C(=O)O)N=C(c2ccc(OCCCO)cc2)O[C@@H]1c1ccccc1N=[N+]=[N-] has composite z-score reaching or exceeding 0.09?
Output line: condition met

Input line: Hi team, for NC(=O)[C@H]1[C@@H]2C(=O)O[C@@H](c3ccccc3)[C@@H](c3ccccc3)N2[C@@H](c2ccc(O)cc2)[C@]12C(=O)Nc1ccc(C#CC3=CCCCC3)cc12 , is the recorded composite z-score at or above 0.09?
Output line: condition met

Input line: Does CCOC(=O)C[C@H]1[C@H](OC(=O)c2ccc(-c3ccccc3)cc2)[C@@H](NC(=O)Cc2ccc(OC)cc2)c2cc(OCCCO)ccc2N1C(=O)Cc1ccc(OC)cc1 have a reported composite z-score of at least 0.09?
Output line: condition not met

Input line: Check the entry O=C1[C@@]23C=C(Br)[C@H](C[C@@H]2COC3)[C@@]12CO2 : does composite z-score equal or exceed 0.09?
Output line: condition not met

Input line: Say whether CN(C)CCCNC(=O)[C@@H]1c2ccccc2C(=O)N(C2CCCCC2)[C@H]1c1ccc(CO)cc1 shows composite z-score of 0.09 or more.
Output line: condition met

* * *

This listing pairs molecules with measured z-score.
Experiment: adipocyte viability effects, profiling panel, cell-based, 3T3-L1 adipocytes, calcein-AM fluorescence, 48 h, basal (AID 1163); further: test concentration not given here
Conditions: 3T3-L1 adipocytes viability, higher = more signal

Please review the following examples before continuing.
CCN(CC)c1ccc(N2CC=CC34O[C@@H]5C=CCCOC(=O)C5[C@H]3C(=O)N(CCO)[C@@H]4C2=O)cc1 (stereo not given in full)	1.11
COc1cc2c(cc1O)C(c1ccc(CN3CCCC3)cc1)N(C)CC2 (stereo not given)	-0.582

Input line: Can you look up the measured z-score of CCOC(=O)C[C@H]1[C@H](OC(=O)c2ccc(-c3ccccc3)cc2)[C@@H](NC(=O)Cc2ccc(OC)cc2)c2cc(OCCCO)ccc2N1C(=O)Cc1ccc(OC)cc1 for me?
Output line: 0.0052

Input line: So what's the measured z-score for this one? CC(C)[C@H]1NC(=O)[C@@]23C(=O)N[C@@H](Cc4ccccc4)C2[C@H](C)[C@@]2(C)O[C@H]2C3/C=C/C/C=C\CNC(=O)[C@H](Cc2ccccc2)NC1=O (stereo not given in full)
Output line: -0.144

Input line: Consider the molecule shown here: C[C@]1(C(=O)O)c2ccccc2C(=O)N(Cc2ccc(OC(F)(F)F)cc2)[C@H]1c1ccc(CO)cc1 What is its recorded z-score?
Output line: 0.755

Input line: Give its z-score value. Item: O=C1C2C=CC(C(O)c3ccc(I)cc3)N(Nc3ccccc3)C2C(=O)N1c1ccccc1 (stereo not given)
Output line: -0.748

Input line: Requested field: z-score. Item: O=C1C2C=CC(C(O)c3ccc4c(c3)OCO4)N(Nc3ccccc3)C2C(=O)N1c1ccccc1 (stereo not given)
Output line: -0.756

Input line: Given O=C1O[C@H](c2ccccc2)[C@H](c2ccccc2)N2[C@H]1[C@@H](C(=O)Nc1nc3ccccc3s1)[C@]1(C(=O)Nc3ccc(C#CC4=CCCCC4)cc31)[C@H]2c1ccc(O)cc1 , state its recorded z-score.
Output line: -0.197

Input line: z-score lookup needed for CCOC(=O)C1=C[C@@H](C(C)(C)C)N(S(=O)(=O)c2ccc(C)cc2)[C@H]1c1cccc(Cl)c1 , thanks.
Output line: -0.192

Input line: Entry CC(CO)N1C(=O)[C@@H]2[C@H]3C(=O)OCC=C[C@H]3OC23C=CCN(c2ccc(Cl)cc2)C(=O)[C@@H]13 (stereo not given in full) has what z-score?
Output line: 0.311

Input line: Fill in the blank: the reported z-score of C#C[C@@H](CC)O[Si](C#CCCCC#N)(C(C)C)C(C)C is ____.
Output line: -0.87

Input line: Quick check: z-score of CCOC(=O)C[C@H]1[C@H](OC(=O)c2ccc(-c3ccccc3)cc2)[C@@H](NC(=O)CC(C)C)c2cc(OCCCO)ccc2N1C(=O)c1ccccc1 ?
Output line: -0.257
